test system: Cin5 (UniProt P40917)
Sequence: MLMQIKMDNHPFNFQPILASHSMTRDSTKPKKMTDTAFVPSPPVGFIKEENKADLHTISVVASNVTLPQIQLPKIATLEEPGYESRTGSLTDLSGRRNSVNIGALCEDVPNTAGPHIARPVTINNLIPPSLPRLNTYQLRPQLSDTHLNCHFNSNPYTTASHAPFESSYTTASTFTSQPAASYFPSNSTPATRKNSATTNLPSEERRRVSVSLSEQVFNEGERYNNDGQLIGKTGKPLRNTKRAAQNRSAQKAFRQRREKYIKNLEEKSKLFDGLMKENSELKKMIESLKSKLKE
test summary: PBM E-score (8-mer binding enrichment) (E-score (-0.5 to 0.5)); higher = stronger / more preferred TF binding
test conditions: protein concentration: 100 nM; construct: GST-full length
In all, about 33,000 sequences were measured (“E-score (-0.5 to 0.5)”: median about -0.0059, highest 2% from about 0.26 on). The full list was thinned out, with the highest values kept by preference.
Response key: y means PBM E-score >= 0.07; n means PBM E-score < 0.07.

seq text | test system | qualitative label
TAAGCAGA | Cin5 (UniProt P40917) | y
TAAGCGAA | Cin5 (UniProt P40917) | y

Kindly determine if PBM E-score recorded for CCATCATA is above or exactly 0.07.
n

Kindly determine if PBM E-score recorded for CGACTGGA is above or exactly 0.07.
n

Kindly determine if PBM E-score recorded for CATTATCG is above or exactly 0.07.
n

Kindly determine if PBM E-score recorded for CAAGCGAA is above or exactly 0.07.
y
